Please provide measured TGI for the entries that follow.
- Tested on: SK-MEL-28 melanoma
- experiment notes: NCI tumour cell line growth inhibition, 48 h
Answers are plain numbers, in µM.

compound	assayed target	TGI [µM]
Cc1cc2c(cc1C)[n+](=O)c(C(=O)/C=C/c1ccccc1Cl)c(C)n2[O-]	SK-MEL-28 melanoma	86.8

Now for another entry.
Prompt: Dear colleague, please send me the reported TGI for CC1(C)CC[C@]2(C(=O)O)CC[C@]3(C)C(=CC[C@@H]4[C@@]5(C)CC[C@H](OC6OC(CO)C(O)C(O)C6OC6OC(CO)C(O)C(O)C6O)C(C)(C)[C@@H]5CC[C@]43C)[C@@H]2C1 (some centres undefined) when you can.
Response: 28.9

* * *

- Test system: NCI-H522 lung
- experiment notes: NCI tumour cell line growth inhibition, 48 h; in the data active means GI50 below about 0.43 µM; inactive means the rest
Your reply should match one of these outcome classes. t for active, f for inactive

Study these solved cases before continuing.
compound	assayed target	category label
COc1cc(C2C(C#N)=C(N)Oc3cc(O)ccc32)cc(OC)c1OC (stereo not given)	NCI-H522 lung	t
O=C([O-])c1ccccc1Nc1ccccc1[O-].[Ni+3].[OH3+].[OH3+].[OH3+]	NCI-H522 lung	f
COc1cc(NC(N)=NCCC(C)(C)c2ccc(C(F)(F)F)cc2)ncc1C#N	NCI-H522 lung	f
C[C@]12CC[C@H]3[C@@H](C[C@@H]4N=C(c5ccc(O)cc5)S[C@@]45C[C@H](O)CC[C@]35C)[C@@H]1CC[C@@H]2O	NCI-H522 lung	f

Here is another compound to look at.
Prompt: Lab log entry: CC([O-])C(=O)[O-].NCC1CCC1CN.[Pt+4] (stereo not given) — outcome as called in the assay?
Response: f

* * *

- System: SNB-19 CNS
- experiment notes: NCI tumour cell line growth inhibition, 48 h
reported endpoint: TGI

Here's what some known entries look like.
compound	reported endpoint	result
N#Cc1c2nc3ccccc3nc2n2ccc3ccccc3c12	TGI	> 100 µM
O=C(/C(=C/c1cccs1)c1ccccc1)c1ccccc1	TGI	> 100 µM
Cc1cc(NCCCCCCNc2cc(C)nc3ccc(Cl)cc23)c2cc(Cl)ccc2n1	TGI	66.8 µM
CCN(CC)C1=Nc2ccccc2-n2c(C)cnc2C1	TGI	> 100 µM

// batch mode: one TGI value per listed entry
1. O=C1OC(c2ccccc2)N/C1=C\c1ccc2c(c1)OCO2 (stereo unspecified)
2. Cc1n[nH]c(=O)n1N1C(=O)c2ccccc2C1=O

Response:
["> 100 µM", "> 100 µM"]

* * *

- Test system: A498 renal
- experiment notes: NCI tumour cell line growth inhibition, 48 h
Record form. Attribute: log10 TGI. Fill in for each entry.
Field: value | Transform: log10 | Quantity: TGI | Unit: µM

Here are 5 molecules together with their reported answers.
molecule	log10 TGI
CN(C)/C=N/S(=O)(=O)c1nn2c(C=O)c(-c3ccc(-c4ccc([N+](=O)[O-])cc4)o3)nc2s1	1.73
CCc1ccc(Nc2cc(C)nc3nc(C)nn23)cc1	1.90
O=C1c2cccnc2C(=O)c2c1c(C(=O)OCCN1CCOCC1)c1ccccn21	0.22
CSc1nc2c(c(=O)[nH]1)C(c1ccc(Cl)cc1)C1=C(N2)/C(=C/c2ccc(Cl)cc2)CNC1 (stereo not given)	1.05
CC(C)=CCC[C@H](C)[C@H]1CC[C@@H](C)c2cc(O)c(C)cc21	1.49

Next molecule, please.
Prompt: Retrieve log10 TGI measured for CC1Cc2cc(O)ccc2C2[C@@H]1C1CC[C@H](O)[C@@]1(C)C[C@@H]2O[N+](=O)[O-] (stereo not given in full) and print it.
Response: 1.90

* * *

- Test system: HOP-18 NSCLC
- experiment notes: NCI tumour cell line growth inhibition, 48 h
reported endpoint: TGI

Example entries begin here.
compound	assayed target	TGI
CC(O[Si](C)(C)C)C1C=CC(C)n2c(=O)n(-c3ccccc3)c(=O)n21 (stereo not given)	HOP-18 NSCLC	> 100 µM
Cc1cc2c(c(N)c1C)C(=O)c1ccccc1C2=O	HOP-18 NSCLC	56 µM
COC(=O)NN1C(C)=C(C(=O)OC)C2(CCOC2=O)C1(C)O (stereo not given)	HOP-18 NSCLC	> 100 µM
COc1cc2c(cc1O)C(C)Cc1cc3c(cc1N(C)CC2)OCO3 (stereo not given)	HOP-18 NSCLC	90.9 µM
C/C(=N/N)c1ccc2[nH]c3c(C)cc([N+](=O)[O-])c(C)c3c2c1	HOP-18 NSCLC	24 µM

Each compound below has a reported value. Please supply its TGI.
1. BrC12c3ccccc3Sc3ccccc3C1(Br)c1ccccc12 (stereo not given)
2. Cc1cc2c(cc1C)[n+](=O)c(C(=O)/C=C/c1ccccc1Cl)c(C)n2[O-]
3. CC1OC(OC2CC(O)(C(=O)CO)Cc3c(O)c4c(c(O)c32)C(=O)c2ccccc2C4=O)CC(N)C1O (stereo not given)
4. ClC[Si]12OCCN(CCO1)CCO2
5. CCOC(=O)NC(=O)c1cn(CCSCCOC(=O)NCCCCCCNC(=O)OCCSCCn2cc(C(=O)NC(=O)OCC)c(=O)[nH]c2=O)c(=O)[nH]c1=O
6. COc1cc(C=O)c(-c2cc3c(cc2C=O)OCO3)c(OC)c1OC
7. COc1cc(-c2cc(CCC(=O)Nc3ccccc3[N+](=O)[O-])n(-c3ccc([N+](=O)[O-])cc3[N+](=O)[O-])n2)ccc1O
8. CCN(CC)CCOc1ccc(C(=C2CCCCC2)c2ccc(OCCN(CC)CC)cc2)cc1

Response:
["> 100 µM", "> 100 µM", "0.0358 µM", "> 100 µM", "> 100 µM", "> 290 µM", "> 10 µM", "8.01 µM"]

// each listed compound needs a value for TGI
1. CSc1ccc2c(cc1=O)[C@@H](NC(=O)c1ccc(F)cc1)CCc1cc(O)c(O)c(O)c1-2
2. N#CC1=C(c2ccccc2)C(O)(c2ccccc2)NC1=O (stereo not given)

Response:
1: > 100 µM; 2: > 100 µM

* * *

Please provide measured TGI for the entries that follow.
- System: HL-60(TB) leukemia
- experiment notes: NCI tumour cell line growth inhibition, 48 h

compound	TGI
N#Cc1c2nc3ccccc3nc2n2ccc3ccccc3c12	> 100 µM
COc1cc2c(cc1O)C(C)Cc1cc3c(cc1N(C)CC2)OCO3 (centres undefined)	> 58.8 µM
O=C(O)C(F)(OC(F)(F)C(F)(OC(F)(F)C(F)(F)C(F)(F)F)C(F)(F)F)C(F)(F)F (centres undefined)	> 100 µM
COc1ccc(-c2nocc2-c2cc(OC)c(OC)c(OC)c2)cc1	0.886 µM
Oc1cc2c(cc1O)-c1[nH]ncc1CC2	76.6 µM
O=C(CSc1nnc(-c2ccc(N=Cc3ccc(Cl)cc3)cc2)o1)Nc1cccc(Cl)c1	> 100 µM
NC(CCCCNC(=O)C(Cc1ccccc1)NC(=O)OCc1ccccc1)C(=O)NC(CCCCNC(=O)C(Cc1ccccc1)NC(=O)OCc1ccccc1)C(=O)NC(CCCCNC(=O)C(Cc1ccccc1)NC(=O)OCc1ccccc1)C(=O)NC(CCCCNC(=O)C(Cc1ccccc1)NC(=O)OCc1ccccc1)C(=O)NC(CCCCNC(=O)C(Cc1ccccc1)NC(=O)OCc1ccccc1)C(=O)NC(CCCCNC(=O)C(Cc1ccccc1)NC(=O)OCc1ccccc1)C(=O)O (centres undefined)	> 100 µM
COC1(C)C=NCC(C)(C)NC(=O)C(C)(OC)C=NCC(C)(C)NC1=O (centres undefined)	> 10 µM

Field: next compound
Prompt: # return recorded TGI for input `Nc1ccc(N)c2c1C(=O)c1c(N)ccc(N)c1C2=O`
Response: > 100 µM

* * *

- Tested on: SK-MEL-2 melanoma
- experiment notes: NCI tumour cell line growth inhibition, 48 h; in the data active = GI50 below about 0.43 µM; inactive = the rest
Pick one and only one: 1.0 (active), 0.0 (inactive)

A selection of reference data follows.
compound	category label
COc1ccc(/C=C/C(=O)c2ccc(Nc3ccnc4cc(Cl)ccc34)cc2)cc1	0.0
CC[C@@]1(O)C(=O)OCc2c1cc1n(c2=O)Cc2c-1nc1ccccc1c2/C=N/OC(C)(C)C	1.0
CC[C@]12CCCN3CC[C@]4(C(=C(C(=O)OC)C1)Nc1ccccc14)[C@@H]32	0.0
Nc1nc2c(c3cnccc13)C(c1cccc(Cl)c1)Cc1cnccc1-2 (centres undefined)	1.0
COc1cc(OC)cc(-c2cncn2-c2ccc(-c3nc4cc(OC)c(OC)c(OC)c4s3)cc2)c1	0.0
C[C@@]1(N2C(=O)OC[C@@H]2c2ccccc2)C(=O)N([C@H](CC(=O)N2CCC(N3CCCCC3)CC2)C(=O)NCc2cccc(C(F)(F)F)c2)[C@@H]1/C=C/c1ccccc1	0.0

Prompt: Called result for `O=C([O-])c1ccccc1Nc1ccccc1[O-].[Ni+3].[OH3+].[OH3+].[OH3+]`
Response: 0.0

Prompt: Identify the outcome logged in this assay for the compound shown: CSc1nc2c(c(=O)[nH]1)C(c1ccc(Cl)cc1)C1=C(N2)/C(=C/c2ccc(Cl)cc2)CNC1 (centres undefined)
Response: 0.0

Prompt: What did the test return for `C/C(=N\NC(=O)c1ccncc1)c1ccc(O)cc1O` ?
Response: 0.0

Recorded values, source PubChem BioAssay (NCI).
